Origin of the recorded values: ChEMBL document CHEMBL3988442

Test system: Plasmodium falciparum
Assay: Calibr Malaria Delayed Death Assay SOP
Type: functional, organism-based
Set-up: scale not given: in the data most compounds retested in dose-response had high values
Conditions: concentration 4.99e-06 (unit not given; other assays of the set use mol/L)
Screen size: about 38,000 compounds; about 1,200 (3.2%) showed an effect of 50% or more. The median lay at about -58%. The full list was thinned out, with strong results kept by preference.
Note to self: class = bucket of Percent Effect, per interval 1 = under -70%, interval 2 = from -70% up to -20%, interval 3 = -20% and over

Kindly state the category for this molecule: `N#CCCN(Cc1ccccn1)C(=O)c1cccc(CN2CCCC2)c1`
interval 2

Kindly state the category for this molecule: `CN(C)CCN1CCN(C)c2nc(-c3ccccc3)ncc2C1=O`
interval 2

Kindly state the category for this molecule: COCC(=O)NC1CC2(CCN(CCF)CC2)Oc2ccccc21.O=C(O)C(F)(F)F (stereo unspecified)
interval 1

Kindly state the category for this molecule: `COCCC(=O)N(Cc1ccccn1)Cc1ccccc1C`
interval 1

Kindly state the category for this molecule: `CCCc1nc2c(c(C)c(C)n2CCN(C)C)c(N)c1CC`
interval 3

Kindly state the category for this molecule: `COc1ccccc1OCCN(C)c1cc(C)nc(N)n1`
interval 3

Kindly state the category for this molecule: O=S(=O)(NCC(O)c1ccc2c(c1)CCO2)c1ccccc1F (stereo unspecified)
interval 1

Kindly state the category for this molecule: Cc1nc(-c2cccnc2)ncc1C(=O)N1CCCC(N(C)C)CC1 (stereo unspecified)
interval 2

Kindly state the category for this molecule: `CCc1c(C)sc2c1c(N)nc(=O)n2CCN(C)C`
interval 3

Kindly state the category for this molecule: `COc1cccc(Cn2cc(N3C(=O)[C@H]4CCCC[C@H]4C3=O)cn2)c1`
interval 2

Kindly state the category for this molecule: CC(C)C(NC(=O)NCCNc1ccccn1)c1cccs1 (stereo unspecified)
interval 3

Kindly state the category for this molecule: `CN(Cc1cccc(F)c1)C(=O)CS(=O)(=O)Cc1c(Cl)cccc1Cl`
interval 3

Kindly state the category for this molecule: `Fc1ccc(OCCCNC2=NCCN2)cc1.I`
interval 3

Kindly state the category for this molecule: `COc1ncnc2c1CCN(Cc1cccs1)CC2.O=C(O)C(F)(F)F`
interval 1

Kindly state the category for this molecule: `CCc1c(-c2ccccc2)nc2c(c(C)c(C)n2CCN(C)C)c1N`
interval 3

Kindly state the category for this molecule: CCOCCOC(C)C(=O)Nc1ccnn1-c1ccccc1C (stereo unspecified)
interval 2

Kindly state the category for this molecule: CC(C)N1CCC2(CC1)CC(NS(C)(=O)=O)c1ccccc1O2.O=C(O)C(F)(F)F (stereo unspecified)
interval 3

Kindly state the category for this molecule: `CC(C)Oc1ncnc2c1CCN(Cc1ccoc1)CC2.O=C(O)C(F)(F)F`
interval 3

Kindly state the category for this molecule: `CCc1nc(CNc2ccc(F)c(F)c2)no1`
interval 2

Kindly state the category for this molecule: `O=C1CC2(CCN(CCCO)CC2)CN1Cc1ccc(F)c(F)c1`
interval 2

Kindly state the category for this molecule: `Cc1ccc(CN2CCc3ncnc(OC(C)C)c3CC2)s1.O=C(O)C(F)(F)F`
interval 3

Kindly state the category for this molecule: CC(C(=O)NCC1CCCCC1)S(=O)(=O)Cc1csc(-c2cccs2)n1 (stereo unspecified)
interval 1

Kindly state the category for this molecule: `COc1cc(N2C[C@@H]3COC[C@@H](Cc4nc(C)no4)[C@@H]3C2)ncn1`
interval 1

Kindly state the category for this molecule: `COc1c[nH]c(C(=O)Nc2nc(C)cs2)cc1=O`
interval 1

Kindly state the category for this molecule: O=C(CN1CCCC1Cn1cncn1)NCC1(c2ccccc2)CC1 (stereo unspecified)
interval 2

Kindly state the category for this molecule: Cc1ccc(CNC(=O)C2=NOC3(CCCNC3)C2)cc1 (stereo unspecified)
interval 3

Kindly state the category for this molecule: `CCCN1CCN(c2ccc(-c3nc(C)no3)cn2)CC1`
interval 1

Kindly state the category for this molecule: O=C1CN(S(=O)(=O)CC(F)(F)F)CC(O)CN1CCCc1ccccc1 (stereo unspecified)
interval 2

Kindly state the category for this molecule: `Cc1ccsc1CN(CCCN(C)C)Cc1ccccn1`
interval 3

Kindly state the category for this molecule: `CC(C)Oc1ncnc2c1CCN(Cc1ccc(F)cc1)CC2.O=C(O)C(F)(F)F`
interval 3

Kindly state the category for this molecule: `O=C(Nc1nccs1)c1csc(NC2CCCC2)n1`
interval 1

Kindly state the category for this molecule: Cc1ccc(CNCC2Cn3nncc3CO2)s1 (stereo unspecified)
interval 1

Kindly state the category for this molecule: O=C(CC(SC1CCCCC1)C(=O)O)c1ccc(Br)cc1 (stereo unspecified)
interval 1

Kindly state the category for this molecule: `COc1ccc(OCCN(C)CCCn2cnc3c(N)ncnc32)cc1`
interval 1

Kindly state the category for this molecule: `COc1ccc(F)c(-c2cc(C)nc(N)n2)c1`
interval 2

Kindly state the category for this molecule: `Cc1ccc(CN2C[C@H](OCC3CCN(C)CC3)[C@H]3COC[C@H]32)o1`
interval 3

Kindly state the category for this molecule: `COc1cccc(CNc2nc(N3CCOCC3)ns2)c1OC`
interval 2

Kindly state the category for this molecule: `CO[C@H]1CN(C(=O)c2ccnnc2)[C@@H]2COC[C@H]12`
interval 3

Kindly state the category for this molecule: Cc1ccc(NC(C(N)=O)c2ccc(F)cc2)cc1 (stereo unspecified)
interval 2

Kindly state the category for this molecule: `Cc1noc(C)c1CS(=O)(=O)CC(=O)N(C)Cc1cccc(F)c1`
interval 2

Kindly state the category for this molecule: `Cc1cc(C)cc(CN2C[C@@H]3OCCN(CC(=O)N(C)C)[C@@H]3C2)c1.O=C(O)C(F)(F)F`
interval 1

Kindly state the category for this molecule: CCn1c(SCC(=O)O)nnc1C(C)NC(=O)c1ccc(Cl)cc1 (stereo unspecified)
interval 1

Kindly state the category for this molecule: `COCCn1ccc2c(C(=O)Nc3nc4c(s3)CCC4)cccc21`
interval 1

Kindly state the category for this molecule: `COc1ccc(OCCN(C)c2cc(C)nc(N)n2)cc1`
interval 3

Kindly state the category for this molecule: CC(C)N1CCC2(CC1)CC(NCc1ccccn1)c1ccccc1O2.O=C(O)C(F)(F)F.O=C(O)C(F)(F)F.O=C(O)C(F)(F)F (stereo unspecified)
interval 3
